These entries and their values trace back to patent US20220143204A1.

- EXPERIMENTAL_TARGET: T1, human PDGFRB extracellular domain (human, UniProt P09619 33-532)
- T1 construct: extracellular domain; also called hPDGFRB-ECD; human PDGFRB ectodomain
- T1 sequence (P09619 33-532): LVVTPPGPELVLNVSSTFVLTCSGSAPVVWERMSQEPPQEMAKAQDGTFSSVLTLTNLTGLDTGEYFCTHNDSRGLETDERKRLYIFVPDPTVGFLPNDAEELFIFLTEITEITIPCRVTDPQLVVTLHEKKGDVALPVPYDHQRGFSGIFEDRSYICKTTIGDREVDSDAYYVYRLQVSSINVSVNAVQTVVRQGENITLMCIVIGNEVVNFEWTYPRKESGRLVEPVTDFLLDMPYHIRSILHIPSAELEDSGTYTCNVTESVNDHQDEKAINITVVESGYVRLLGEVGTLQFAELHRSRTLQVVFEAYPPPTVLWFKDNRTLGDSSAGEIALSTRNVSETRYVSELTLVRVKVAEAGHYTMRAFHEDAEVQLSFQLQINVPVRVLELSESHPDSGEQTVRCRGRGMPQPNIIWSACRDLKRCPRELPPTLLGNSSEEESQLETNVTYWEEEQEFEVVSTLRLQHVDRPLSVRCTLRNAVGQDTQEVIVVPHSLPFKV
- METHOD_DESCRIPTION: binding assay on immobilised human PDGFRB ectodomain, apparent affinity (Example 4)

# BINDER, binding result
data = [
    ("SP23P (VHH, Llama VHH; on phage in the phage ELISA) VHH: EVQLVESGGELVQAGGSLRLSCAVSGRTLTSYPMGWFRQAPGKEREFVAAISWSGGDTMYADSVKGRFTISRDNSKNTVYLQMNSLKPEDTADYYCARRRYSSGISRHLVDYEYWGQGTQVTVSS", "binds"),
    ("SP11P (VHH, Llama VHH; on phage in the phage ELISA) VHH: EVQLVESGGGLVQAGDSLRLSCAASGRTFSSYPIAWFRQAPGKEREFVAAITSSGLTTYYANVVKGRFAISRDNAKDTVYLQMNSLKPEDTAVHYCATSNGFLSGRDIYQHNKYIYWGQGTQVTVSS", "binds"),
]
